conditions: in water, 280.65 K
reported-property: solubility (mole fraction)
Quick one: just the number, no unit, thanks!

Reported solubility (mole fraction), molecule CC(C)(C)[C@H](O)[C@H](Cc1ccc(Cl)cc1)n1cncn1 (racemic) : ____ 5.22e-05

* * *

settings: in water, 305.65 K
reported-property: solubility (mole fraction)
Quick one: just the number, no unit, thanks!

Reported solubility (mole fraction), compound CC(C)(C)[C@H](O)[C@H](Cc1ccc(Cl)cc1)n1cncn1 (racemic) : ____ 0.000408

* * *

conditions: in water, 283.15 K
reported-property: solubility (mole fraction)

Reported solubility (mole fraction), molecule CC(C)(C)[C@H](O)[C@H](Cc1ccc(Cl)cc1)n1cncn1 (racemic) : ____ 6.56e-05

* * *

details: in water, 295.65 K
reported-property: solubility (mole fraction)

Reported solubility (mole fraction), compound CC(C)(C)[C@H](O)[C@H](Cc1ccc(Cl)cc1)n1cncn1 (racemic) : ____ 0.000181

* * *

conditions: in water, 310.65 K
reported-property: solubility (mole fraction)
Quick one: just the number, no unit, thanks!

Reported solubility (mole fraction), compound CC(C)(C)[C@H](O)[C@H](Cc1ccc(Cl)cc1)n1cncn1 (racemic) : ____ 0.00054

* * *

conditions: in water, 293.15 K
reported-property: solubility (mole fraction)
Quick one: just the number, no unit, thanks!

Reported solubility (mole fraction), compound CC(C)(C)[C@H](O)[C@H](Cc1ccc(Cl)cc1)n1cncn1 (racemic) : ____ 0.000146

* * *

conditions: in water, 278.15 K
reported-property: solubility (mole fraction)

Reported solubility (mole fraction), compound CC(C)(C)[C@H](O)[C@H](Cc1ccc(Cl)cc1)n1cncn1 (racemic) : ____ 3.96e-05

* * *

details: in water, 313.15 K
reported-property: solubility (mole fraction)
Quick one: just the number, no unit, thanks!

Reported solubility (mole fraction), compound CC(C)(C)[C@H](O)[C@H](Cc1ccc(Cl)cc1)n1cncn1 (racemic) : ____ 0.000626

* * *

conditions: in water, 285.65 K
reported-property: solubility (mole fraction)
Quick one: just the number, no unit, thanks!

Reported solubility (mole fraction), compound CC(C)(C)[C@H](O)[C@H](Cc1ccc(Cl)cc1)n1cncn1 (racemic) : ____ 7.76e-05

* * *

details: in water, 290.65 K
reported-property: solubility (mole fraction)

Reported solubility (mole fraction), molecule CC(C)(C)[C@H](O)[C@H](Cc1ccc(Cl)cc1)n1cncn1 (racemic) : ____ 0.000111

The measured values listed here are drawn from BigSolDB 2.1.
